- Assay remarks: Acute toxicity, intraperitoneal (LD0, LD30, LD60, LD100)
- Format: in vivo
- Condition info: mouse, in vivo, ip; 128 mg/kg i.p., male mice; read-out: death 24 h after administration
- Procedure: The results of toxicological and neuropsychopharmacological tests which were carried out with the products according to the invention have been summarized below. In these tests, solutions of the said products in distilled water were administered intraperitoneally in a volume of 20 ml/kg to male mice and in a volume of 5 ml/kg to male rats.
Value kind: mortality at 24 h

Ask: Any idea what its mortality at 24 h is? The compound is Cl.Clc1ccc(C2CN=CNC2)cc1 (stereo not shown) [CRL 41 336, hydrochloride]
Result: 60%
